# Test system: A673/TR/shEF
# assay protocol: cell viability (LOESS-normalised, relative to median of negative controls) (log2 ratio); higher = more viable cells (less compound effect), active = hit call of the paper (over 3 MAD below the median)
# measurement parameters: 2.5 µM; library screen: screen1; EWS-FLI1 expression: high (no doxycycline); treatment time: 72 h
Among all 3,200 compounds or so, about 300 (9.4%) showed activity. What follows is part of a selection rich in actives, with near analogues and random picks from the rest.
test readout: cell viability (log2)
Output spec: single numeric token, no unit.

Please review the following examples before continuing.
>>> result("O=S(=O)(c1cccc2cnccc12)N1CCCNCC1")
-0.187
>>> result("Brc1ccc([C@H]2CN3CCSC3=N2)cc1")
-0.357
>>> result("O=c1[nH]cc(F)c(=O)[nH]1")
0.0991
>>> result("C[C@@H]1CCC2[C@@H](C)[C@@H](O)O[C@@H]3OC4(C)CC[C@@H]1[C@@]23OO4 (stereo partly specified)")
0.029
>>> result("CC[C@H](/C=C/[C@@H](C)[C@H]1CC[C@H]2[C@@H]3CCC4=CC(=O)CC[C@]4(C)[C@H]3CC[C@]12C)C(C)C")
0.0668

Query: So what's the measured cell viability (log2) for this one? CN(C)C(=O)/C(=C\c1cccc(Br)c1)NC(=O)c1ccccc1
Response: 0.179

Query: Which cell viability (log2) value belongs to CC(C)(C)n1nc(-c2ccc(Cl)cc2)c2c(N)ncnc21 ?
Response: -0.388

Query: Consider the compound O=C1c2ccc(O)cc2OC(c2cc(O)c(O)c(O)c2)C1O (stereo unspecified) and give its measured cell viability (log2).
Response: 0.165
